IC50 for assorted compounds
Target: Serine/threonine-protein kinase pim-1 (Homo sapiens, UniProt P11309)
Sequence (P11309 whole entry): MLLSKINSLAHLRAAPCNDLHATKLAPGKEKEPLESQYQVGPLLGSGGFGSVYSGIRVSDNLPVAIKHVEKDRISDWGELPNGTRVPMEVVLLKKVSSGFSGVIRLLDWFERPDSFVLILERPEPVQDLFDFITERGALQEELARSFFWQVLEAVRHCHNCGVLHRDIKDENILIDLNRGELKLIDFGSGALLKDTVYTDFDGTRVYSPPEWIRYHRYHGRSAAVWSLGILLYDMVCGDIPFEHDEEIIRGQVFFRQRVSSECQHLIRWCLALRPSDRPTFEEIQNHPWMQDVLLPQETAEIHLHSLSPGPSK

Here are 2 compounds together with their reported answers.
CN1CCOc2c(NCCN3CCOCC3)nn3c(-c4cccc(OC(F)(F)F)c4)nnc3c21: > 1000 nM
CN1CCOc2c(N3CCC(N(C)C)CC3)nn3c(-c4cccc(OC(F)(F)F)c4)nnc3c21: > 1000 nM

Field: next compound
Request: Any idea what IC50 came out for CN1CCOc2c1c(NCCc1cccnc1)nn1c(-c3cccc(OC(F)(F)F)c3)nnc21 on Serine/threonine-protein kinase pim-1 (Homo sapiens, UniProt P11309)?
Result: < 100 nM

* * *

Target: Serine/threonine-protein kinase pim-3 (Homo sapiens)
pIC50: −log10 of the molar value.
PARAMETER: pIC50

Request: Any idea what pIC50 came out for CN1CCOc2c1c(NCC1CC3(CCNCC3)C1)nn1c(-c3cccc(OC(F)(F)F)c3)nnc21 on Serine/threonine-protein kinase pim-3 (Homo sapiens)?
Result: > 7.00
